System: large (Lg) crabgrass
experimentalDetails: Test A postemergence
Assay type: in vivo, Digitaria sanguinalis
conditions: 125 g ai/ha, 0 to 100 scale where 0 is no effect and 100 is complete control
Listed here: items and their measured Plant response rating, Crabgrass, Large.

[
  {
    "compoundString": "O=Cc1cccc(Oc2ncc(F)cn2)c1-n1cc(Cl)cn1",
    "Plant response rating, Crabgrass, Large": 0
  },
  {
    "compoundString": "FC(F)(F)c1cnc(Oc2ccccc2-n2cc(C(F)(F)F)cn2)nc1",
    "Plant response rating, Crabgrass, Large": 20
  },
  {
    "compoundString": "Brc1cnc(Oc2ccccc2-n2cc(Br)c(Br)n2)nc1",
    "Plant response rating, Crabgrass, Large": 0
  },
  {
    "compoundString": "FC(F)(F)c1cccc(Oc2ncc(Cl)cn2)c1-n1cc(Br)cn1",
    "Plant response rating, Crabgrass, Large": 80
  },
  {
    "compoundString": "CC(=O)c1cccc(Oc2ncc(Cl)cn2)c1-n1cc(Br)cn1",
    "Plant response rating, Crabgrass, Large": 10
  },
  {
    "compoundString": "Cc1nn(-c2ccccc2Oc2ncc(Cl)cn2)cc1Cl",
    "Plant response rating, Crabgrass, Large": 0
  },
  {
    "compoundString": "Clc1cnc(Oc2ccccc2-n2cc(Cl)cn2)nc1",
    "Plant response rating, Crabgrass, Large": 10
  },
  {
    "compoundString": "Fc1cnc(Oc2ccccc2-n2cc(Cl)cn2)nc1",
    "Plant response rating, Crabgrass, Large": 70
  },
  {
    "compoundString": "FC(F)c1cnn(-c2ccccc2Oc2ncc(Br)cn2)c1",
    "Plant response rating, Crabgrass, Large": 40
  },
  {
    "compoundString": "Cc1nn(-c2ccccc2Oc2ncc(Cl)cn2)cc1Br",
    "Plant response rating, Crabgrass, Large": 0
  },
  {
    "compoundString": "N#Cc1cccc(Oc2ncc(F)cn2)c1-n1cc(Cl)cn1",
    "Plant response rating, Crabgrass, Large": 90
  }
]
